test-protocol: chemical genetic growth profiling, strain panel (AID 1159580);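 also: tested at 20 µM; growth read once vehicle control cultures reached saturation at 30 °C; 1 = growth at the plate median or of vehicle wells; lower values mean less growth of the strain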
applied-conditions: S. cerevisiae deletion strains, growth OD, locus YOR136W, strain idh2, stronger effect = lower value
Out of some 5,500 compounds screened, about 2,000 (36%) were called active. Another 18% or so got no clear call; they are omitted. This is one part of the list.
observable: normalized growth
# answer = number (no unit)

Ask | State the recorded normalized growth for this entry: O=C1CCCCC/C=C/CCCCCCCCO1
Reply | 0.992

Ask | // query: CCCCCCCCCCCC(=O)OCC(COP(=O)(O)OCC(O)COP(=O)(O)OCC(COC(=O)CCCCCCCCCCC)OC(=O)CCCCCCCCCCC)OC(=O)CCCCCCCCCCC (configuration not stated)
Reply | 1.01

Ask | Then Cc1nnc(NS(=O)(=O)c2ccc(N)cc2)s1 ?
Reply | 0.992

Ask | Okay, and CN=C(N)NCCCC(N)C(=O)O (configuration not stated) ?
Reply | 1.02
